Test system: 485176-168-R4-J1-PDC complex spheroid growth;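 note: spheroids exposed to compounds for seven days before readout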
assay-name: Anticancer human tumor 485176-168-R4-J1-PDC patient-derived pancreatic adenocarcinoma cell line growth inhibition [RAS]
cond: curve of first compound; second compound 0.3 µM
pIC50: −log10 of the molar value.
I would appreciate it if you labelled entries YES when pIC50 is 7 or higher, otherwise NO.

{"compound": "CCC(CC)c1cc(NC2CCC(N)C2)n2nccc2n1 (stereo not drawn) + CCn1c(-c2cccnc2C(C)OC)c2c3cc(ccc31)N1CCOC(CC(NC(=O)C(C(C)C)N(C)C(=O)C3(F)CCN(C(=O)C#CC(C)(C)N(C)C)CC3)C(=O)N3CCCC(N3)C(=O)OCC(C)(C)C2)C1", "group-label": "NO"}
{"compound": "CC(Nc1ccc2c(c1)OCCn1cc(N3C(=O)OCC3C(F)F)nc1-2)C(N)=O (stereo not drawn) + CCn1c(-c2cccnc2C(C)OC)c2c3cc(ccc31)N1CCOC(CC(NC(=O)C(C(C)C)N(C)C(=O)C3(F)CCN(C(=O)C#CC(C)(C)N(C)C)CC3)C(=O)N3CCCC(N3)C(=O)OCC(C)(C)C2)C1", "group-label": "NO"}
{"compound": "O=C(c1ccc(F)c(F)c1Nc1ccc(I)cc1F)N1CC(O)([C@@H]2CCCCN2)C1 + CCn1c(-c2cc(N3CCN(C)CC3)cnc2C(C)OC)c2c3cc(ccc31)-c1csc(n1)CC(NC(=O)C1CC1C)C(=O)N1CCCC(N1)C(=O)OCC(C)(C)C2", "group-label": "YES"}
{"compound": "CC(=O)OC12COC1CC(O)C1(C)C(=O)C(O)C3=C(C)C(OC(=O)C(O)C(NC(=O)OC(C)(C)C)c4ccccc4)CC(O)(C(OC(=O)c4ccccc4)C21)C3(C)C (stereo not drawn) + CCn1c(-c2cc(N3CCN(C)CC3)cnc2C(C)OC)c2c3cc(ccc31)-c1csc(n1)CC(NC(=O)C1CC1C)C(=O)N1CCCC(N1)C(=O)OCC(C)(C)C2", "group-label": "YES"}
{"compound": "C=CC(=O)Nc1cc(Nc2nccc(-c3cn(C)c4ccccc34)n2)c(OC)cc1N(C)CCN(C)C + CCn1c(-c2cccnc2C(C)OC)c2c3cc(ccc31)N1CCOC(CC(NC(=O)C(C(C)C)N(C)C(=O)C3(F)CCN(C(=O)C#CC(C)(C)N(C)C)CC3)C(=O)N3CCCC(N3)C(=O)OCC(C)(C)C2)C1", "group-label": "NO"}
{"compound": "CC1(O)CCCC1n1c(=O)c(C(F)F)cc2cnc(NC3CCN(S(C)(=O)=O)CC3)nc21 (stereo not drawn) + CCn1c(-c2cc(N3CCN(C)CC3)cnc2C(C)OC)c2c3cc(ccc31)-c1csc(n1)CC(NC(=O)C1CC1C)C(=O)N1CCCC(N1)C(=O)OCC(C)(C)C2", "group-label": "NO"}
{"compound": "CCc1c2c(nc3ccc(O)cc13)-c1cc3c(c(=O)n1C2)COC(=O)[C@]3(O)CC + CCn1c(-c2cccnc2C(C)OC)c2c3cc(ccc31)N1CCOC(CC(NC(=O)C(C(C)C)N(C)C(=O)C3(F)CCN(C(=O)C#CC(C)(C)N(C)C)CC3)C(=O)N3CCCC(N3)C(=O)OCC(C)(C)C2)C1", "group-label": "YES"}
